Origin of values: ChEMBL document CHEMBL3297657

Tested on: HepG2
Experiment: cells
Conditions: Homo sapiens, HepG2, 48 h
Description: Cytotoxicity against human HepG2 cells after 48 hrs by MTT assay
value type: IC50

Solved entries:
[[record]]
compound = "CCOP(=O)(OCC)C(NC(=O)C(C)Oc1ccc2c(c1O)C(=O)c1ccccc1C2=O)c1cccc(C)c1 (stereo not drawn)"
observed_measurement = "> 50 µM"

[[record]]
compound = "CCOP(=O)(OCC)C(NC(=O)COc1ccc2c(c1O)C(=O)c1ccccc1C2=O)c1ccccc1Cl (stereo not drawn)"
observed_measurement = "> 50 µM"


// switching to the query compound
Ask | Look up IC50: CCOP(=O)(OCC)C(NC(=O)COc1ccc2c(c1O)C(=O)c1ccccc1C2=O)c1ccc(F)cc1 (stereo not drawn)
Reply | > 50 µM

----------
Test system: HepG2
Assay: cells
Details: Homo sapiens, HepG2, 48 h
pIC50: −log10 of the molar value.
Recorded pIC50 for the following compounds

[[record]]
compound = "O=C1c2ccccc2C(=O)c2c1ccc(O)c2O [ATHRAQUINONES A]"
observed_measurement = "< 4.30"

[[record]]
compound = "CCOP(=O)(OCC)C(NC(=O)C(C)Oc1ccc2c(c1O)C(=O)c1ccccc1C2=O)c1cccc(F)c1 (stereo not drawn)"
observed_measurement = "< 4.30"


Ask | Look up pIC50: CCOP(=O)(OCC)C(NC(=O)C(C)Oc1ccc2c(c1O)C(=O)c1ccccc1C2=O)c1ccc(C)cc1 (stereo not drawn)
Reply | < 4.30

----------
System: HepG2
Assay: cells
Conditions: Homo sapiens, HepG2, 48 h
pIC50: −log10 of the molar value.
Recorded pIC50 for the following compounds

Solved entries:
[[record]]
compound = "CCOP(=O)(OCC)C(NC(=O)COc1ccc2c(c1O)C(=O)c1ccccc1C2=O)c1ccc(C)cc1 (stereo not given)"
observed_measurement = "< 4.30"

[[record]]
compound = "CCOP(=O)(OCC)C(NC(=O)C(C)Oc1ccc2c(c1O)C(=O)c1ccccc1C2=O)c1ccccc1 (stereo not given)"
observed_measurement = "< 4.30"

[[record]]
compound = "CCOP(=O)(OCC)C(NC(=O)C(C)Oc1ccc2c(c1O)C(=O)c1ccccc1C2=O)c1ccc(OC)cc1 (stereo not given)"
observed_measurement = "< 4.30"

[[record]]
compound = "CCOP(=O)(OCC)C(NC(=O)COc1ccc2c(c1O)C(=O)c1ccccc1C2=O)c1ccccc1OC (stereo not given)"
observed_measurement = "< 4.30"

[[record]]
compound = "CCOP(=O)(OCC)C(NC(=O)COc1ccc2c(c1O)C(=O)c1ccccc1C2=O)c1ccc(OC)cc1 (stereo not given)"
observed_measurement = "< 4.30"

[[record]]
compound = "CCOP(=O)(OCC)C(NC(=O)COc1ccc2c(c1O)C(=O)c1ccccc1C2=O)c1cccc(OC)c1 (stereo not given)"
observed_measurement = "< 4.30"

[[record]]
compound = "CCOP(=O)(OCC)C(NC(=O)C(C)Oc1ccc2c(c1O)C(=O)c1ccccc1C2=O)c1cccc(OC)c1 (stereo not given)"
observed_measurement = "< 4.30"

[[record]]
compound = "CCOP(=O)(OCC)C(NC(=O)COc1ccc2c(c1O)C(=O)c1ccccc1C2=O)c1ccccc1Br (stereo not given)"
observed_measurement = "< 4.30"


Ask | Look up pIC50: CCOP(=O)(OCC)C(NC(=O)COc1ccc2c(c1O)C(=O)c1ccccc1C2=O)c1ccccc1F (stereo not given)
Reply | < 4.30

Ask | Look up pIC50: CCOP(=O)(OCC)C(NC(=O)COc1ccc2c(c1O)C(=O)c1ccccc1C2=O)c1ccc(Br)cc1 (stereo not given)
Reply | < 4.30

----------
Test system: A549
Assay: cells
Details: Homo sapiens, A549, 48 h
Description: Cytotoxicity against human A549 cells after 48 hrs by MTT assay
Recorded IC50 for the following molecules

Solved entries:
[[record]]
molecule = "O=C1c2ccccc2C(=O)c2c1ccc(O)c2O"
system_tested = "A549"
value_type = "IC50"
observed_measurement = "> 50 µM"

[[record]]
molecule = "CCOP(=O)(OCC)C(NC(=O)COc1ccc2c(c1O)C(=O)c1ccccc1C2=O)c1ccc(F)cc1 (stereo unspecified)"
system_tested = "A549"
value_type = "IC50"
observed_measurement = "49 µM"


Ask | Look up IC50: CCOP(=O)(OCC)C(NC(=O)C(C)Oc1ccc2c(c1O)C(=O)c1ccccc1C2=O)c1ccccc1OC (stereo unspecified)
Reply | 12.3 µM

Ask | Look up IC50: CCOP(=O)(OCC)C(NC(=O)C(C)Oc1ccc2c(c1O)C(=O)c1ccccc1C2=O)c1ccccc1Br (stereo unspecified)
Reply | 11.4 µM

Ask | Look up IC50: CCOP(=O)(OCC)C(NC(=O)COc1ccc2c(c1O)C(=O)c1ccccc1C2=O)c1ccccc1 (stereo unspecified)
Reply | 12.1 µM

Ask | Look up IC50: CCOP(=O)(OCC)C(NC(=O)COc1ccc2c(c1O)C(=O)c1ccccc1C2=O)c1ccc(Br)cc1 (stereo unspecified)
Reply | 45.1 µM

Ask | Look up IC50: CCOP(=O)(OCC)C(NC(=O)C(C)Oc1ccc2c(c1O)C(=O)c1ccccc1C2=O)c1cccc(OC)c1 (stereo unspecified)
Reply | 36 µM

----------
System: A549
Assay: cells
Details: Homo sapiens, A549, 48 h
Recorded IC50 for the following compounds
Answer format: numeric, µM implied, no suffix.

Solved entries:
[[record]]
compound = "CCOP(=O)(OCC)C(NC(=O)C(C)Oc1ccc2c(c1O)C(=O)c1ccccc1C2=O)c1ccc(Br)cc1 (centres undefined)"
measurement_unit = "µM"
observed_measurement = 30.3

[[record]]
compound = "CCOP(=O)(OCC)C(NC(=O)COc1ccc2c(c1O)C(=O)c1ccccc1C2=O)c1ccccc1Cl (centres undefined)"
measurement_unit = "µM"
observed_measurement = 38


Ask | Look up IC50: CCOP(=O)(OCC)C(NC(=O)COc1ccc2c(c1O)C(=O)c1ccccc1C2=O)c1cccc(C)c1 (centres undefined)
Reply | 47

Ask | Look up IC50: CCOP(=O)(OCC)C(NC(=O)COc1ccc2c(c1O)C(=O)c1ccccc1C2=O)c1cccc(OC)c1 (centres undefined)
Reply | 44.1

Ask | Look up IC50: CCOP(=O)(OCC)C(NC(=O)COc1ccc2c(c1O)C(=O)c1ccccc1C2=O)c1ccc(C)cc1 (centres undefined)
Reply | 33.8

----------
Recorded IC50 for the following molecules
System: A549
Assay: cells
Conditions: Homo sapiens, A549, 48 h
Answer format: numeric, µM implied, no suffix.

Solved entries:
[[record]]
molecule = "CCOP(=O)(OCC)C(NC(=O)C(C)Oc1ccc2c(c1O)C(=O)c1ccccc1C2=O)c1ccccc1F (centres undefined)"
measurement_unit = "µM"
observed_measurement = 6.76

[[record]]
molecule = "CCOP(=O)(OCC)C(NC(=O)C(C)Oc1ccc2c(c1O)C(=O)c1ccccc1C2=O)c1cccc(F)c1 (centres undefined)"
measurement_unit = "µM"
observed_measurement = 35.1

[[record]]
molecule = "CCOP(=O)(OCC)C(NC(=O)C(C)Oc1ccc2c(c1O)C(=O)c1ccccc1C2=O)c1cccc(Cl)c1 (centres undefined)"
measurement_unit = "µM"
observed_measurement = 18.7


Ask | Look up IC50: CCOP(=O)(OCC)C(NC(=O)COc1ccc2c(c1O)C(=O)c1ccccc1C2=O)c1ccc(OC)cc1 (centres undefined)
Reply | 42.2
